Source: patent US20260176289A1

Each item that follows carries a reported pIC50.
Biological target: KRAS-G12V (Homo sapiens, UniProt P01116, G12V)
Sequence (P01116 with tags, fused parts or gaps isoform P01116-2 G12V): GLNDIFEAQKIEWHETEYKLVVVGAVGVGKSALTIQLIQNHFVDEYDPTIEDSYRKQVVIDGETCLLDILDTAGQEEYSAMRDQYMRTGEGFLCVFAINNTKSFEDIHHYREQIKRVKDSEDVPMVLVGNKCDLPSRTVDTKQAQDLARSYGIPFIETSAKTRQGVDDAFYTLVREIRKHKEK
Experiment: SOS-catalyzed nucleotide exchange assay (Procedure A, TR-FRET), KRAS-G12V
Assay type: biochemical
Settings: nucleotide exchange, read-out: KRAS G12V GNE IC50
pIC50: −log10 of the molar value.
quantity: pIC50

{"molecule": "C=C1CN2CC(=C)CC2(COc2nc(N3CCOC[C@@](C)(O)C3)c3c(n2)sc2c(-c4c(C5CC5)c(Cl)cc5[nH]ncc45)nccc23)C1 [Ex-225]", "measurement_target": "KRAS-G12V (Homo sapiens, UniProt P01116, G12V)", "measured_value": 7.67}
{"molecule": "C[C@@]1(O)COCCN(c2nc(OC[C@]3(CN4CC5CC4(CF)C5)CC3(F)F)nc3sc4c(-c5c(C6(F)CC6)c(Cl)cc6[nH]ncc56)nccc4c23)C1 [Ex-259]", "measurement_target": "KRAS-G12V (Homo sapiens, UniProt P01116, G12V)", "measured_value": 7.47}
{"molecule": "C[C@@]1(O)COCCN(c2nc(OC[C@@]34CCCN3C[C@H](F)C4)nc3sc4c(-c5c(C(F)F)c(Cl)cc6[nH]ncc56)nccc4c23)C1 [Ex-133]", "measurement_target": "KRAS-G12V (Homo sapiens, UniProt P01116, G12V)", "measured_value": 6.89}
{"molecule": "CC1CCc2cc3[nH]ncc3c(-c3nccc4c3sc3nc(OC[C@@]56CCCN5C[C@H](F)C6)nc(N5CCOC[C@@](C)(O)C5)c34)c21 (single isomer, unassigned) [Ex-103]", "measurement_target": "KRAS-G12V (Homo sapiens, UniProt P01116, G12V)", "measured_value": 8.06}
{"molecule": "CC(C)c1c(Cl)cc2[nH]ncc2c1-c1nccc2c1sc1nc(OC[C@@]34CCCN3C[C@H](F)C4)nc(N3CCOC[C@@](C)(O)C3)c12 [Ex-145]", "measurement_target": "KRAS-G12V (Homo sapiens, UniProt P01116, G12V)", "measured_value": 7.14}
{"molecule": "CC(C)(C)c1c(Cl)cc2[nH]ncc2c1-c1nccc2c1sc1nc(OC[C@@]34CCCN3C[C@H](F)C4)nc(N3CCOC[C@@](C)(O)C3)c12 [Ex-156]", "measurement_target": "KRAS-G12V (Homo sapiens, UniProt P01116, G12V)", "measured_value": 7.78}
{"molecule": "C=C(c1c(C)cc2[nH]ncc2c1-c1nccc2c1sc1nc(OC[C@@]34CCCN3C[C@H](F)C4)nc(N3CCOC[C@@](C)(O)C3)c12)C(F)(F)F [Ex-66]", "measurement_target": "KRAS-G12V (Homo sapiens, UniProt P01116, G12V)", "measured_value": 7.24}
{"molecule": "C#Cc1c(F)ccc2cc(O)cc(-c3nccc4c3sc3nc(OC[C@@]56CCCN5C[C@H](F)C6)nc(N5CCOC[C@@](C)(O)C5)c34)c12 [Ex-135]", "measurement_target": "KRAS-G12V (Homo sapiens, UniProt P01116, G12V)", "measured_value": 8.97}
{"molecule": "C[C@@]1(O)COCCN(c2nc(OC[C@@]34C[C@H](F)CN3CC3(CC3)C4)nc3sc4c(-c5c(C6CC6)c(Cl)cc6[nH]ncc56)nccc4c23)C1 [Ex-219]", "measurement_target": "KRAS-G12V (Homo sapiens, UniProt P01116, G12V)", "measured_value": 6.71}
{"molecule": "C[C@@]1(O)COCCN(c2nc(OC[C@]3(CN4CCC4)CC3(F)F)nc3sc4c(-c5c(C6(F)CC6)c(Cl)cc6[nH]ncc56)nccc4c23)C1 [Ex-239]", "measurement_target": "KRAS-G12V (Homo sapiens, UniProt P01116, G12V)", "measured_value": 7.94}
{"molecule": "CN1CC[C@H]2C(Oc3nc(N4CCOC[C@@](C)(O)C4)c4c(n3)sc3c(-c5c(C6CC6)c(Cl)cc6[nH]ncc56)nccc34)C[C@H]21 (some centres unmarked) [Ex-216]", "measurement_target": "KRAS-G12V (Homo sapiens, UniProt P01116, G12V)", "measured_value": 6.06}
{"molecule": "CN(C)C[C@@]1(COc2nc(N3CCOC[C@@](C)(O)C3)c3c(n2)sc2c(-c4c(C5CC5)c(Cl)cc5[nH]ncc45)nncc23)CC1(F)F [Ex-287]", "measurement_target": "KRAS-G12V (Homo sapiens, UniProt P01116, G12V)", "measured_value": 7.80}
{"molecule": "C[C@@]1(O)COCCN(c2nc(OC[C@]3(CN4CC5(CC(F)C5)C4)CC3(F)F)nc3sc4c(-c5c(C6CC6)c(Cl)cc6[nH]ncc56)nccc4c23)C1 [Ex-230]", "measurement_target": "KRAS-G12V (Homo sapiens, UniProt P01116, G12V)", "measured_value": 7.15}
{"molecule": "C[C@@H]1C[C@@H](COc2nc(N3CCOC[C@@](C)(O)C3)c3c(n2)sc2c(-c4c(C5CC5)c(C(F)(F)F)cc5[nH]ncc45)nccc23)N(C)C1 [Ex-83]", "measurement_target": "KRAS-G12V (Homo sapiens, UniProt P01116, G12V)", "measured_value": 6.99}
{"molecule": "CN(C)C1COC2C[C@@]21COc1nc(N2CCOC[C@@](C)(O)C2)c2c(n1)sc1c(-c3c(C4(F)CC4)c(Cl)cc4[nH]ncc34)nccc12 (some centres unmarked) [Ex-269]", "measurement_target": "KRAS-G12V (Homo sapiens, UniProt P01116, G12V)", "measured_value": 7.70}
{"molecule": "C#Cc1csc2cc3[nH]ncc3c(-c3nccc4c3sc3nc(OC[C@@]56CCCN5C[C@H](F)C6)nc(N5CCOC[C@@](C)(O)C5)c34)c12 [Ex-163]", "measurement_target": "KRAS-G12V (Homo sapiens, UniProt P01116, G12V)", "measured_value": 8.34}
{"molecule": "Cc1cc2[nH]ncc2c(-c2nccn3c2cc2nc(OC[C@@]45CCCN4C[C@H](F)C5)nc(N4CCOC[C@@](C)(O)C4)c23)c1C1CC1 [Ex-295]", "measurement_target": "KRAS-G12V (Homo sapiens, UniProt P01116, G12V)", "measured_value": 7.01}
{"molecule": "Cc1cc2[nH]ncc2c(-c2nccc3c2sc2nc(OC[C@@]45CCCN4C[C@H](F)C5)nc(NC45CC(O)(C4)C5)c23)c1C(F)(F)F [Ex-187]", "measurement_target": "KRAS-G12V (Homo sapiens, UniProt P01116, G12V)", "measured_value": 6.77}
{"molecule": "Cc1cc2[nH]ncc2c(-c2nncc3c2sc2nc(OC[C@@]45CCCN4C[C@H](F)C5)nc(N4CCOC[C@@](C)(O)C4)c23)c1C(F)(F)F [Ex-277]", "measurement_target": "KRAS-G12V (Homo sapiens, UniProt P01116, G12V)", "measured_value": 7.19}
{"molecule": "CNc1cc2c(sc3nc(OC[C@@]45CCCN4C[C@H](F)C5)nc(N4CCOC[C@@](C)(O)C4)c32)c(-c2c(C(F)(F)F)c(C)cc3[nH]ncc23)n1 [Ex-30]", "measurement_target": "KRAS-G12V (Homo sapiens, UniProt P01116, G12V)", "measured_value": 6.71}
{"molecule": "CO[C@@H]1C[C@@H](COc2nc(N3CCOC[C@@](C)(O)C3)c3c(n2)sc2c(-c4c(C5CC5)c(C(F)(F)F)cc5[nH]ncc45)nccc23)N(C)C1 [Ex-85]", "measurement_target": "KRAS-G12V (Homo sapiens, UniProt P01116, G12V)", "measured_value": 7.35}
{"molecule": "C[C@@]1(O)COCCN(c2nc(OC[C@@]34CCCN3C[C@H](F)C4)nc3sc4c(-c5c(C6=CCC6)c(C(F)(F)F)cc6[nH]ncc56)nccc4c23)C1 [Ex-77]", "measurement_target": "KRAS-G12V (Homo sapiens, UniProt P01116, G12V)", "measured_value": 7.68}
{"molecule": "CCc1csc2cc3[nH]ncc3c(-c3nccc4c3sc3nc(OC[C@@]56CCCN5C[C@H](F)C6)nc(N5CCOC[C@@](C)(O)C5)c34)c12 [Ex-168]", "measurement_target": "KRAS-G12V (Homo sapiens, UniProt P01116, G12V)", "measured_value": 8.26}

---

Target: KRAS-WT (Homo sapiens, UniProt P01116)
Sequence (P01116 with tags, fused parts or gaps isoform P01116-2): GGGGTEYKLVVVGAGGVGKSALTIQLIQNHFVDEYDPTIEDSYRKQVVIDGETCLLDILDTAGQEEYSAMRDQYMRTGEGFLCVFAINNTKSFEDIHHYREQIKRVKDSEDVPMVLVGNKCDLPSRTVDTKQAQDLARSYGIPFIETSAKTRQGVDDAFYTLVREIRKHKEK
Assay: SOS-catalyzed nucleotide exchange assay (Procedure A, TR-FRET), KRAS-WT
Type: biochemical
Settings: nucleotide exchange, read-out: KRAS WT GNE IC50
pIC50: −log10 of the molar value.
Assign fulfilled to entries whose pIC50 meets or exceeds 7; assign not fulfilled to the rest.

{"structure": "Cc1cc2[nH]ncc2c(-c2nccc3c2sc2nc(OC[C@@]45CCCN4C[C@H](F)C5)nc(N4CCOC[C@@](C)(O)C4)c23)c1C(F)F", "assigned_category": "not fulfilled"}
{"structure": "C#Cc1c(F)ccc2cc3[nH]ncc3c(-c3nccc4c3sc3nc(OC[C@@]56CCCN5C[C@H](F)C6)nc(N5CCOC[C@@](C)(O)C5)c34)c12", "assigned_category": "fulfilled"}
{"structure": "C#Cc1cccc2cccc(-c3nccc4c3sc3nc(OC[C@@]56CCCN5C[C@H](F)C6)nc(N5CCOC[C@@](C)(O)C5)c34)c12", "assigned_category": "not fulfilled"}
{"structure": "Cc1cc2[nH]ncc2c(-c2nccc3c2oc2nc(OC[C@@]45CCCN4C[C@H](F)C5)nc(N4CCOC[C@@](C)(O)C4)c23)c1C(F)(F)F", "assigned_category": "not fulfilled"}
{"structure": "Cc1cc2[nH]ncc2c(-c2nccc3c2oc2nc(OC[C@]4(CN(C)C)CC4(F)F)nc(N4CCOC[C@@](C)(O)C4)c23)c1C(F)F", "assigned_category": "not fulfilled"}
